I'd appreciate it if you could supply Inhibition of Factor 11 protein relative to the PBS control values for the items below.
- Test system: Factor 11 protein
- Experiment Description: Factor 11 protein in monkey plasma by sandwich ELISA (Example 45)
- Assay type: in vivo, cynomolgus monkeys
- Test Parameters: day 64; escalating dose regimen; plasma ELISA
Report the figure in % without appending any unit label.

Inhibition of Factor 11 protein relative to the PBS control lookup needed for ISIS 416838: MOE gapmer, nucleobases 1018 to 1042 of SEQ ID NO: 1 (Table 6) (antisense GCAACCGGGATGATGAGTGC; MOE gapmer, wing and gap sizes not given here) , thanks.
11

Fill in: Inhibition of Factor 11 protein relative to the PBS control of ISIS 417002: MOE gapmer, nucleobases 1275 to 1318 of SEQ ID NO: 1 (Table 8) (antisense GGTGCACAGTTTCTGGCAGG; MOE gapmer, wing and gap sizes not given here) is ___
26

Reported Inhibition of Factor 11 protein relative to the PBS control for ISIS 416850: MOE gapmer, nucleobases 1275 to 1318 of SEQ ID NO: 1 (Table 8) (antisense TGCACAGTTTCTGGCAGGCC; MOE gapmer, wing and gap sizes not given here) : what is it?
55

Could you share which Inhibition of Factor 11 protein relative to the PBS control value was measured for ISIS 416864: MOE gapmer, nucleobases 1275 to 1318 of SEQ ID NO: 1 (Table 8) (antisense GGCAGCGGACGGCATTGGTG; MOE gapmer, wing and gap sizes not given here) ?
5

// lookup Inhibition of Factor 11 protein relative to the PBS control for ISIS 416858: MOE gapmer, nucleobases 1275 to 1318 of SEQ ID NO: 1 (Table 8) (antisense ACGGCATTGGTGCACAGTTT; MOE gapmer, wing and gap sizes not given here)
68

###

- Test system: human Factor 11 mRNA
- Experiment Description: Dose-dependent inhibition of human Factor 11 in HepG2 cells, lipofectin 9.375-75 nM (Example 4)
- Format: cell-based
- Test Parameters: 18.75 nM, relative to untreated control cells
- Procedure: Cells were plated at a density of 10,000 cells per well and transfected using lipofectin reagent with 9.375 nM, 18.75 nM, 37.5 nM and 75 nM concentrations of antisense oligonucleotide, as specified in Table 9. After a treatment period of approximately 16 hours, RNA was isolated from the cells and Factor 11 mRNA levels were measured by quantitative real-time PCR. […] Factor 11 mRNA levels were adjusted according to total RNA content, as measured by RIBOGREEN. […]
Strand notation (5' to 3'): a small letter for the sugar, then the base; units joined by * are phosphorothioate-linked, units joined directly phosphodiester-linked; [ ] holds rarer units or linkages, { } end groups; capitals alone tell only the bases. e = 2'-O-(2-methoxyethyl) (MOE); [5mC] = 5-methylcytosine; d = 2'-deoxy (DNA)
Answer each item with its documented percent inhibition of Factor 11 at 18.75 nM.
Number only, in %; omit the unit.

Give its percent inhibition of Factor 11 at 18.75 nM value. Item: 416989 (antisense eG*eA*dG*dA*dT*dT*d[5mC]*dT*dT*dT*dG*dG*dG*d[5mC]*d[5mC]*eA*eT*eT*e[5mC]*e[5mC]) [compound 416989]
41

Fill blank: measured percent inhibition of Factor 11 at 18.75 nM of the substance 416908 (antisense eG*e[5mC]*eA*dA*d[5mC]*d[5mC]*dG*dG*dG*dA*dT*dG*dA*dT*dG*dA*dG*eT*eG*e[5mC]) [compound 416908] is ____.
57

Any idea what its percent inhibition of Factor 11 at 18.75 nM is? The substance is 416925 (antisense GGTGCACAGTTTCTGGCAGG; 3-14-3 gapmer chemistry, further chemistry not given here) [compound 416925]
38

Fill in: percent inhibition of Factor 11 at 18.75 nM of 417003 (antisense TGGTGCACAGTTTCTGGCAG; 2-13-5 gapmer chemistry, further chemistry not given here) [compound 417003] is ___
44

Query (substance): 416825 (antisense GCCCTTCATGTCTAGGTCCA; 5-10-5 gapmer, further chemistry not given here) [compound 416825] ; field requested: percent inhibition of Factor 11 at 18.75 nM
52

State the recorded percent inhibition of Factor 11 at 18.75 nM for this entry: 413467 (antisense eG*eG*eT*e[5mC]*e[5mC]*dA*d[5mC]*dA*dT*dA*dA*dA*dT*dG*dT*e[5mC]*eT*eT*eT*eG) [compound 413467]
51

###

- Experiment Description: Hematology assays in cynomolgus monkeys (Example 45)
- Type: in vivo
- Test Parameters: day 22
Hi there, I'd appreciate the recorded reticulocytes for every entry that follows.
Field format: number, assumed %, no unit text.

Requested field: reticulocytes. Item: ISIS 416838: MOE gapmer, nucleobases 1018 to 1042 of SEQ ID NO: 1 (Table 6) (antisense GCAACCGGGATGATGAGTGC; MOE gapmer, wing and gap sizes not given here)
1.2

Which reticulocytes is reported for this substance? ISIS 416864: MOE gapmer, nucleobases 1275 to 1318 of SEQ ID NO: 1 (Table 8) (antisense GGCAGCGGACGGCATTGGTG; MOE gapmer, wing and gap sizes not given here)
0.9

###

- Experiment Description: Liver function, ALT, AST, bilirubin in cynomolgus monkeys (Example 45)
- Format: in vivo
- Test Parameters: plasma; day 22; escalating dose regimen
Measured Endpoint: Bilirubin (mg/dL)
Value expressed in mg/dL; do not type the unit.

Please report the recorded Bilirubin for ISIS 416864: MOE gapmer, nucleobases 1275 to 1318 of SEQ ID NO: 1 (Table 8) (antisense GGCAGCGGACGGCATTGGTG; MOE gapmer, wing and gap sizes not given here) .
0.22

Return reported Bilirubin; argument: ISIS 416858: MOE gapmer, nucleobases 1275 to 1318 of SEQ ID NO: 1 (Table 8) (antisense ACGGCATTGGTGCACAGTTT; MOE gapmer, wing and gap sizes not given here)
0.18

###

- Test Parameters: rat, in vivo, sc, 50 mg/kg
e = 2'-O-(2-methoxyethyl) (MOE); d = 2'-deoxy (DNA)
Kindly supply the reported MCH values for the records listed here.
Form: value (number only, do not type unit).

Give the measured MCH of ISIS 417003: MOE gapmer, nucleobases 1275 to 1318 of SEQ ID NO: 1 (Table 8) (antisense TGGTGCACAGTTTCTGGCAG; MOE gapmer, wing and gap sizes not given here) .
4

Recorded MCH for ISIS 416825: 5-10-5 MOE gapmer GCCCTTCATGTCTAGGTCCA (sugars from the 5' end e5 d10 e5, backbone and methylation of C not given here) , please?
2

Look up MCH for this substance: ISIS 416892: 3-14-3 MOE gapmer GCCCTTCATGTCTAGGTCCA (sugars from the 5' end e3 d14 e3, backbone and methylation of C not given here)
2

If you can, please state the reported MCH value of ISIS 416826: 5-10-5 MOE gapmer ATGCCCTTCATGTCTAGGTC (sugars from the 5' end e5 d10 e5, backbone and methylation of C not given here) .
3

Look up MCH for this substance: ISIS 416999: MOE gapmer, nucleobases 1275 to 1318 of SEQ ID NO: 1 (Table 8) (antisense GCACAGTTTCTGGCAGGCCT; MOE gapmer, wing and gap sizes not given here)
3

Which MCH value is on record for ISIS 416925: MOE gapmer, nucleobases 1275 to 1318 of SEQ ID NO: 1 (Table 8) (antisense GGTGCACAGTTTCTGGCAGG; MOE gapmer, wing and gap sizes not given here) ?
2

###

- Tested on: human Factor 11 mRNA
- Experiment Description: Dose-dependent inhibition of human Factor 11 in HepG2 cells, lipofectin 2.34-75 nM (Example 5)
- Type: cell-based
- Test Parameters: 75 nM, ~16 hours
Hi there, I'd appreciate the recorded percent inhibition of human Factor 11 mRNA relative to untreated control cells for every entry that follows.
Unit % implied. Number only.

Any idea what percent inhibition of human Factor 11 mRNA relative to untreated control cells was measured for 417002 (antisense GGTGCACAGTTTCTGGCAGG; 2-13-5 gapmer chemistry, further chemistry not given here) [compound 417002] ?
84

Consider the substance shown here: 416999 (antisense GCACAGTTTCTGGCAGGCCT; 2-13-5 gapmer chemistry, further chemistry not given here) [compound 416999] What is its recorded percent inhibition of human Factor 11 mRNA relative to untreated control cells?
80

Fill in: percent inhibition of human Factor 11 mRNA relative to untreated control cells of 416850 (antisense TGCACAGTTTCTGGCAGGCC; 5-10-5 gapmer, further chemistry not given here) [compound 416850] is ___
77

Look up percent inhibition of human Factor 11 mRNA relative to untreated control cells: 416838 (antisense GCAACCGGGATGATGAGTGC; 5-10-5 gapmer, further chemistry not given here) [compound 416838]
83

Field request: percent inhibition of human Factor 11 mRNA relative to untreated control cells | item: 416825 (antisense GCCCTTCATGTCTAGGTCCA; 5-10-5 gapmer, further chemistry not given here) [compound 416825]
89

// percent inhibition of human Factor 11 mRNA relative to untreated control cells lookup, key: 416864 (antisense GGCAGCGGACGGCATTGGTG; 5-10-5 gapmer, further chemistry not given here) [compound 416864]
80

Return reported percent inhibition of human Factor 11 mRNA relative to untreated control cells; argument: 416826 (antisense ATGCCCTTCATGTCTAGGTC; 5-10-5 gapmer, further chemistry not given here) [compound 416826]
90

// percent inhibition of human Factor 11 mRNA relative to untreated control cells lookup, key: 416925 (antisense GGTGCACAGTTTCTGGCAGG; 3-14-3 gapmer chemistry, further chemistry not given here) [compound 416925]
72

Entry under review: 416858 (antisense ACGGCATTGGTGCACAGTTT; 5-10-5 gapmer, further chemistry not given here) [compound 416858] . Reported percent inhibition of human Factor 11 mRNA relative to untreated control cells?
77

What value of percent inhibition of human Factor 11 mRNA relative to untreated control cells has been reported for the following substance? 416892 (antisense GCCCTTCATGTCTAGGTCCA; 3-14-3 chimeric gapmer, further chemistry not given here) [compound 416892]
93

# percent inhibition of human Factor 11 mRNA relative to untreated control cells lookup, item 417003 (antisense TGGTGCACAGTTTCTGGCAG; 2-13-5 gapmer chemistry, further chemistry not given here) [compound 417003]
82
